Provide the reported normalized growth of each item.
Procedure summary: chemical genetic growth profiling, strain panel (AID 1159580);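 note: tested at 20 µM; growth read once vehicle control cultures reached saturation at 30 °C; 1 = growth at the plate median or of vehicle wells; lower values mean less growth of the strain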
Assay setup: S. cerevisiae deletion strains, growth OD, locus YLR320W, strain mms22, active compounds read low
Among all 5,500 compounds or so, about 2,000 (36%) were called active. Inconclusive results (about 18%) are left out. Some of the results follow.
One number for each entry.

Below are some compounds; for each one, tell me its normalized growth.
1. CC(=O)CC(c1ccccc1)c1c(O)c2ccccc2oc1=O (centres undefined)
2. CCOC(=O)C1C(C=C(C)C)C1(C)C (centres undefined)
3. O=c1oc2ccccc2c(O)c1Cc1c(O)c2ccccc2oc1=O
4. CN(C)CCC=C1c2ccccc2CCc2ccccc21
5. FC(F)(F)C(Cl)Br (centres undefined)
6. CC[N+]1(C)CCCC(OC(=O)C(O)(c2ccccc2)c2ccccc2)C1 (centres undefined)

**A:**
[1.01, 0.976, 0.989, 0.95, 1.03, 1.02]

Below are some compounds; for each one, tell me its normalized growth.
1. CN(N=O)C(=O)N[C@@H]1[C@@H](O)[C@H](O)[C@@H](CO)O[C@@H]1O
2. CN1CCN2c3ccccc3Cc3ccccc3C2C1 (centres undefined)
3. CC(=O)O.CC(=O)O.[Cd]
4. O=c1cc(-c2cccc(O)c2)oc2ccc(O)cc12
5. O=c1c2ccccc2[se]n1-c1ccccc1
6. [N-]=[N+]=CC(=O)OCC(N)C(=O)O (centres undefined)

**A:**
0.977
0.985
0.696
0.923
0.0819
0.991

Below are some compounds; for each one, tell me its normalized growth.
1. CCN(CC)CCNc1ccc(CO)c2sc3ccccc3c(=O)c12
2. NCCc1ccc(O)c(O)c1
3. CC(=O)Nc1cccc(O)c1
4. CCCCC1C(=O)N(c2ccccc2)N(c2ccccc2)C1=O

**A:**
1. 1.01
2. 1
3. 0.957
4. 1.02

Below are some compounds; for each one, tell me its normalized growth.
1. CNCCC=C1c2ccccc2CCc2ccccc21
2. O=c1cc(-c2ccc(O)cc2)oc2ccc(O)cc12
3. O=c1c2ccccc2oc2ccccc12

**A:**
1: 0.967; 2: 0.964; 3: 0.697

* * *

Procedure summary: chemical genetic growth profiling, strain panel (AID 1159580);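 note: tested at 20 µM; growth read once vehicle control cultures reached saturation at 30 °C; 1 = growth at the plate median or of vehicle wells; lower values mean less growth of the strain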
Assay setup: S. cerevisiae deletion strains, growth OD, locus YLR268W, strain sec22, active compounds read low
Among all 5,500 compounds or so, about 2,000 (36%) were called active. Not shown: some 18% with an inconclusive outcome. The list shows a part of the results.
Provide the reported normalized growth of each item.
Numbers only.

COC(=O)C1=C(C)NC(C)=C(C(=O)OCCN(C)Cc2ccccc2)C1c1cccc([N+](=O)[O-])c1 (stereo not given) | 1
O=C(O)/C=C(\CC(=O)O)C(=O)O | 0.977
COCCOC(=O)C1=C(C)NC(C)=C(C(=O)OC(C)C)C1c1cccc([N+](=O)[O-])c1 (stereo not given) | 0.993
O=C1CCc2cc(OCCCCc3nnnn3C3CCCCC3)ccc2N1 | 0.999

**Q:** // lookup normalized growth for `CCCN1C[C@H](CSC)C[C@@H]2c3cccc4[nH]cc(c34)C[C@H]21`
**A:** 1

* * *

Procedure summary: chemical genetic growth profiling, strain panel (AID 1159580);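 note: tested at 20 µM; growth read once vehicle control cultures reached saturation at 30 °C; 1 = growth at the plate median or of vehicle wells; lower values mean less growth of the strain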
Assay setup: S. cerevisiae deletion strains, growth OD, locus YOR231W, strain MKK1, active compounds read low
Out of some 5,500 compounds screened, about 2,000 (36%) were called active. Roughly 18% stayed inconclusive and do not appear here. This is one part of the list.
Attribute measured: normalized growth
Answers are plain numbers.

Please review the following examples before continuing.
NC(=O)CC[C@@H](N)C(=O)O | 1.03
CN1CCc2c(c3ccccc3n2Cc2ccccc2)C1 | 1.03

Could you now consider this next compound?
**Q:** // lookup normalized growth for CN1CCOC(c2ccccc2)c2ccccc2C1 (stereo not drawn)
**A:** 0.995

Hey, just so you know, these numbers are from PubChem BioAssay AID1159580.
